Dear all, this message contains pKi results, target or system 5-hydroxytryptamine receptor 6 (Homo sapiens, UniProt P50406).
Here pKi is given on a logarithmic scale as minus log10 of the concentration in mol/L.

{"columns": ["compoundStructureString", "testResult"],
 "data": [
  ["CN(C)CCc1cn(Cc2ccccc2)c2ccccc12", 8.22],
  ["COc1ccc2c(c1)c(CCN(C)C)cn2S(=O)(=O)c1ccc(N)cc1", 9.22],
  ["CCN(CC)CCc1cn(S(=O)(=O)c2ccccc2)c2ccc(OC)cc12", 8.22],
  ["COc1ccc2c(c1)c(CCN(C)C)cn2S(=O)(=O)c1ccccc1", 8.70]
]}

Switching to the query record.
[Q] Provide the reported pKi (system: 5-hydroxytryptamine receptor 6 (Homo sapiens, UniProt P50406)) for CN(C)CC[N+]1=CCc2ccccc21
Sequence (P50406 whole entry): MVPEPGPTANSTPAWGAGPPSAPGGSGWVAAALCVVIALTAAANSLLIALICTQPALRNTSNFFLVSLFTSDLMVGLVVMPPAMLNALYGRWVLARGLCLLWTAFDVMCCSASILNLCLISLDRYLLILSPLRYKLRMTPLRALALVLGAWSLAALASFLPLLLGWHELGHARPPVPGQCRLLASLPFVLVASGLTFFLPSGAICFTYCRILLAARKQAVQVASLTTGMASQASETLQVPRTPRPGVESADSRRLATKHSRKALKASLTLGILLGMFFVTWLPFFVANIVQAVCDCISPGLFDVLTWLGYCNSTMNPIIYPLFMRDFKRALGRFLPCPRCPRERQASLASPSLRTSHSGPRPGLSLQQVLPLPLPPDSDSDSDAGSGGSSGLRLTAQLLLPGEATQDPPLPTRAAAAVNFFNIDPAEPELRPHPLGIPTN
[A] 5.72
